Test system: K562
Assay Summary: Antiproliferative activity against human K562 cells after 72 hrs by CellTiter-Glo luminescent cell viability assay
Assay type: functional, cell-based
Experimental Context: K562, 72 h
Value Kind: IC50 (nM)
Your answer is read as nM, so omit the unit and give the number.

Example cases with answers are listed next.
O=C(/C=C/c1ccc2c(c1)C(=O)C1(CCN(Cc3ccccc3)CC1)O2)NO 4110
O=C(/C=C/c1ccc2c(c1)C=CC1(CCN(Cc3ccccc3)CC1)O2)NO 3270
O=C(/C=C/c1ccc2c(c1)C(=O)CC1(CCN(Cc3ccccc3)CC1)O2)NO 399

Next compound, please.
Check the records and state IC50 for O=C(/C=C/c1ccc2c(c1)C(=O)CC1(CCN(C(=O)c3ccccc3)CC1)O2)NO
1650
